- experiment_notes: physchem
- condition_details: octanol/water
- Description: Partition coefficient (logP)
Under this convention, class 1 denotes logP strictly below 0.9 and class 0 denotes logP at or above 0.9.

Is logP strictly under 0.9 for the entry COc1cc2c(c(OC)c1OC)-c1ccc([S+](C)[O-])c(=O)cc1[C@@H](NC(C)=O)CC2 (stereo not given in full) ?
class 1

Is logP strictly under 0.9 for the entry COc1ccc2c(c1OC)-c1ccc(OC)c(=O)cc1[C@@H](NC(C)=O)CC2 ?
class 0

Is logP strictly under 0.9 for the entry COc1cc2c(c(OC)c1OC)-c1ccc(S(C)(=O)=O)c(=O)cc1[C@@H](NC(C)=O)CC2 ?
class 1

Is logP strictly under 0.9 for the entry CNc1ccc2c(cc1=O)[C@@H](NC(C)=O)CCc1cc(OC)c(OC)c(OC)c1-2 ?
class 1

Is logP strictly under 0.9 for the entry COc1cc2c(c(OC)c1OC)-c1ccc(OC)c(=O)cc1[C@@H](NC(=O)c1ccccc1)CC2 ?
class 0

----------
- experiment_notes: physchem
- condition_details: octanol/water
// no strictly below 2 in logP; yes otherwise

Reference set, count: 8
COc1cc2c(c(OC)c1OC)-c1ccc(SC)c(=O)cc1[C@@H](NO[C@H]1[C@H](OC(C)=O)[C@@H](OC(C)=O)[C@H](OC(C)=O)O[C@@H]1COC(C)=O)CC2	yes
COc1cc2c(c(OC)c1OC)-c1ccc(S(=O)(=O)Cc3ccccc3)c(=O)cc1[C@@H](NC(C)=O)CC2	no
COc1cc2c(c(OC)c1OC)-c1ccc(SC)c(=O)cc1[C@@H](NC(=O)C(F)(F)F)CC2	yes
COc1cc2c(c(OC)c1OC)-c1ccc(OC)c(=O)cc1[C@@H](NC(C)=O)CC2 [COLCHICINE]	no
COc1cc2c(c(OC)c1OC)-c1ccc(OC)c(=O)cc1[C@@H](NC(=O)c1ccc([N+](=O)[O-])cc1)CC2	yes
COc1cc2c(c(OC)c1OC)-c1ccc(SCc3ccccc3)c(=O)cc1[C@@H](NC(C)=O)CC2	yes
CCOC(=O)N[C@H]1CCc2cc(OC)c(OC)c(OC)c2-c2ccc(SC)c(=O)cc21	yes
COc1cc2c(c(OC)c1OC)-c1ccc(OC)c(=O)cc1[C@@H](N)CC2 [DEACETYLCOLCHICINE]	no

Evaluate COc1cc2c(c(OC)c1OC)-c1ccc(SC)c(=O)cc1[C@@H](N)CC2 : logP at minimum 2?
no

Evaluate COc1cc2c(c(OC)c1OC)-c1ccc(SC)c(=O)cc1[C@@H](NC1C(CO)OC(O)C(O)C1O)CC2 (some centres undefined) : logP at minimum 2?
no

Evaluate COc1cc2c(c(OC)c1OC)-c1ccc(SC)c(=O)cc1[C@@H](NC(=O)CCl)CC2 : logP at minimum 2?
yes

Evaluate COc1cc2c(c(OC)c1OC)-c1ccc(SC)c(=O)cc1[C@@H](NC1COC(O)C(O)C1O)CC2 (some centres undefined) : logP at minimum 2?
no

Evaluate COc1cc2c(c(OC)c1OC)-c1ccc(OC)c(=O)cc1[C@@H](NC=O)CC2 : logP at minimum 2?
no

Evaluate COc1cc2c(c(OC)c1OC)-c1ccc(OC)c(=O)cc1[C@@H](NC(=O)C(F)(F)F)CC2 : logP at minimum 2?
yes

----------
We begin with a simple list: items and their reported logP.
- experiment_notes: physchem
- condition_details: octanol/water
Lab note: record the figure alone, no unit after it.

A selection of reference data follows.
COc1cc2c(c(OC)c1OC)-c1ccc(OC)c(=O)cc1[C@@H](N(C)C)CC2	2.07
COc1cc2c(c(OC)c1OC)-c1ccc(SC)c(=O)cc1[C@@H](NC(C)=O)CC2	1.66
COc1cc2c(c(OC)c1OC)-c1cc/c(=N\Cc3ccccc3)c(O)cc1[C@@H](NC(C)=O)CC2	2.14
COC(=O)C(N)CCCC/N=c1\ccc2c(cc1O)[C@@H](NC(C)=O)CCc1cc(OC)c(OC)c(OC)c1-2 (stereo not given in full)	-2.1
COc1cc2c(c(OC)c1OC)-c1ccc(SC)c(=O)cc1[C@@H](NC(=O)CO)CC2	1.5

Moving on to the next compound.
// query logP value for entry COc1cc2c(c(OC)c1OC)-c1ccc(OC)c(=O)cc1[C@@H](NC(=O)CCl)CC2
1.71

----------
- experiment_notes: physchem
- condition_details: octanol/water
We begin with a simple list: items and their reported logP.
Lab note: record the figure alone, no unit after it.

// query logP value for entry CN[C@H]1CCc2cc(OC)c(OC)c(OC)c2-c2ccc(OC)c(=O)cc21
1.53

// query logP value for entry COc1cc2c(c(OC)c1OC)-c1ccc(OC)c(=O)cc1[C@@H](NC(=O)CF)CC2
1.19

// query logP value for entry COc1cc2c(c(OC)c1OC)-c1ccc(SC)c(=O)cc1[C@@H](NC(=O)NCCCl)CC2
3.53

// query logP value for entry CN[C@H]1CCc2cc(OC)c(OC)c(OC)c2-c2ccc(SC)c(=O)cc21
2.22
